The origin of these recorded values is paper PMC4226670.

system: T1, GST-TAp73α (UniProt O15350 1-636)
T1 sequence: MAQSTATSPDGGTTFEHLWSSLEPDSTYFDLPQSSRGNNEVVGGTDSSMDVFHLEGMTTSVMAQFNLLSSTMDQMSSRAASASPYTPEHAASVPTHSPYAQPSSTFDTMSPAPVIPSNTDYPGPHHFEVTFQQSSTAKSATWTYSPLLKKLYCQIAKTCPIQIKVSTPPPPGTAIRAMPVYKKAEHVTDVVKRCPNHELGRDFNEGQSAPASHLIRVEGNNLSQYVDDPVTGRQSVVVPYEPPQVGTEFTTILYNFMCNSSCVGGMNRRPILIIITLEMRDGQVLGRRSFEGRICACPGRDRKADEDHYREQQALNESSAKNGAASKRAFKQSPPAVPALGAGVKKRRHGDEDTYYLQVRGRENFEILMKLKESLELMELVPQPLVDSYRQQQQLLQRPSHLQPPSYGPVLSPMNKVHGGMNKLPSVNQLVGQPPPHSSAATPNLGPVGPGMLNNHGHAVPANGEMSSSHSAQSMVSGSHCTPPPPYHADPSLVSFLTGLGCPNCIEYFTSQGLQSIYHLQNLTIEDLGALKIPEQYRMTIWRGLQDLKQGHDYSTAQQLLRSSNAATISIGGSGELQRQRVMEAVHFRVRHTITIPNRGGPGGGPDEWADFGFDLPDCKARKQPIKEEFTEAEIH
assay-explanation: fluorescence polarization; FP: 4 nM FAM duplex, 100 mM NaCl, 10 mM Tris-HCl pH 7.5, 10% glycerol, 5 mM DTT, 0.2 mg/mL BSA, room temperature; pull-down: 2 ug duplex with lysate, 90 min room temperature, then streptavidin beads 2 h 4 C
run-parameters: protein: commercial; tags: GST; chain copies: 4; label: 5' 6-FAM on strand 1; blunt
measured-quantity: pKd
FYI, pKd means -log10 of a concentration in mol per litre.

Query string: Report pKd for PUMA promoter duplex, FAM (dsDNA) DNA 1: CGCGCCTGCAAGTCCTGACTTGTCCGCGGC DNA 2: GCCGCGGACAAGTCAGGACTTGCAGGCGCG please.
Result string: 7.06
